tested on: Cancer cell lines; assay: Inhibition of human breast cancer cells; type: functional; conditions: read-out: pTGI (converted)
ASSAY METRIC: log10 of TGI (log10 of the value in µM)

Cc1cn2c(/C=N/NC(=N)NN)c(-c3ccc(Cl)c([N+](=O)[O-])c3)nc2s1 0.73
Cc1cn2c(/C=N/Nc3ccccn3)c(-c3ccc(Cl)c([N+](=O)[O-])c3)nc2s1 1.59
COc1cc(OC)cc(-c2nc3sccn3c2/C=N/NC(=N)N)c1 1.31
N=C(N)N/N=C/c1c(-c2ccsc2)nc2sccn12 1.50
COc1cc([N+](=O)[O-])c(OC)cc1-c1nc2sc(Cl)cn2c1/C=N\Nc1ccccn1 1.62
N=C(N)N/N=C/c1c(-c2cc(Cl)sc2Cl)nc2n1CCS2 1.36
N=C(N)N/N=C/c1c(-c2ccc(Cl)c([N+](=O)[O-])c2)nc2ccccn12 0.73
N=C(N)N/N=C/c1c(-c2cc(Cl)sc2Cl)nc2sccn12 0.63
N=C(N)N/N=C/c1c(-c2cccs2)nc2sccn12 1.45
Cc1cc(-c2nc3n(c2/C=N/NC(=N)N)CCS3)c(C)s1 1.62
Cc1nn2c(/C=N/NC(=N)N)c(-c3ccc(Cl)c([N+](=O)[O-])c3)nc2s1 0.84
Cc1cn2c(/C=N/NC(=N)N)c(-c3ccsc3)nc2s1 1.35
COc1cc([N+](=O)[O-])c(OC)cc1-c1nc2sc(Cl)cn2c1/C=N\NC(=N)N/N=C\c1c(-c2cc(OC)c([N+](=O)[O-])cc2OC)nc2sc(Cl)cn12 0.83
N=C(N)N/N=C/c1c(-c2cccs2)nc2n1CCS2 1.61
Cc1cn2c(/C=N/NC(=N)N)c(-c3cccs3)nc2s1 1.27
Cc1cc(-c2nc3sc(C)cn3c2/C=N/NC(=N)N)c(C)s1 1.13
COc1cc([N+](=O)[O-])c(OC)cc1-c1nc2sc(Cl)cn2c1/C=N\NC1=NCCN1 1.63
N=C(N)N/N=C/c1c(-c2ccc(Cl)c([N+](=O)[O-])c2)nc2sc3ccccc3n12 0.98
Cc1cc(-c2nc3sccn3c2/C=N/NC(=N)N)c(C)s1 1.48
CC(/C=N/NC(=N)N)=N\NC(=N)N 2.50
Cc1cn2c(/C=N/NC3=NCCN3)c(-c3ccc(Cl)c([N+](=O)[O-])c3)nc2s1 0.88
Cc1cn2c(/C=N/NC(=N)N)c(-c3cc(Cl)sc3Cl)nc2s1 0.42

----------
system: Cancer cell lines; experiment: Inhibition of human non-small cell lung cancer cells; assay type: functional
ASSAY METRIC: log10 GI50 (log10 of the value in µM)

COc1cc(OC)cc(-c2nc3sccn3c2/C=N/NC(=N)N)c1 0.97
Cc1cn2c(/C=N/NC(=N)NN)c(-c3ccc(Cl)c([N+](=O)[O-])c3)nc2s1 0.38
N=C(N)N/N=C/c1c(-c2cc(Cl)sc2Cl)nc2n1CCS2 1.05
COc1cc([N+](=O)[O-])c(OC)cc1-c1nc2sc(Cl)cn2c1/C=N\NC1=NCCN1 -0.03
Cc1cc(-c2nc3sc(C)cn3c2/C=N/NC(=N)N)c(C)s1 0.99
Cc1cn2c(/C=N/Nc3ccccn3)c(-c3ccc(Cl)c([N+](=O)[O-])c3)nc2s1 1.06
Cc1cc(-c2nc3sccn3c2/C=N/NC(=N)N)c(C)s1 1.22
N=C(N)N/N=C/c1c(-c2ccsc2)nc2sccn12 1.18
COc1cc([N+](=O)[O-])c(OC)cc1-c1nc2sc(Cl)cn2c1/C=N\NC(=N)N/N=C\c1c(-c2cc(OC)c([N+](=O)[O-])cc2OC)nc2sc(Cl)cn12 0.31
N=C(N)N/N=C/c1c(-c2cccs2)nc2sccn12 1.11
